Data origin, for the record: PubChem BioAssay (EPA / NIEHS)

# Read-out: CFLAR gene, CFLAR (gene 8837)
# test-description: LTEA_HepaRG_CFLAR: Life Technologies and Expression Analysis (LTEA) Assay for CFLAR gene using HepaRG (AID 2283455)
# condition-description: mRNA level, 48 h; actives raise or lower the signal
Active and inactive are the calls of the source. The calls were made as follows: active = hit-call score of the fitted dose curve at least 0.9, where 1 is the maximum; inactive = score below 0.9.
Pick one: active, inactive

COc1ccc(O)c(C(C)(C)C)c1    inactive
C=CC(N)=O    inactive
Nc1ccc(-c2ccc(N)cc2)cc1    inactive
O=C(NC(=O)c1cc(F)c(F)cc1Cl)Nc1cc(F)ccc1N1CCC(C(=O)O)CC1    inactive
Cc1cccc(C)c1N    inactive
CCSC(=O)N(CC)C1CCCCC1    inactive

Recorded test outcome, item CC(C)(O)C(=O)Nc1ccc([N+](=O)[O-])c(C(F)(F)F)c1
inactive

Recorded test outcome, item Oc1c(Cl)c(Cl)c(Cl)c(Cl)c1Cl
active

---

# Read-out: ABC Transporter (ABCB1), ABCB1 (gene 5243)
# test-description: LTEA_HepaRG_ABCB1: Life Technologies and Expression Analysis (LTEA) Assay for ABC Transporter (ABCB1) using HepaRG (AID 2283460)
# condition-description: mRNA level, 48 h; actives raise or lower the signal
Activity calls are given as the source filed them. How the source made its calls: active means hit-call score of the fitted dose curve at least 0.9, where 1 is the maximum; inactive means score below 0.9.
measure: AC50

Look over these answered cases.
CCCCCCCCCc1ccc(O)cc1    inactive
Cc1ccccc1[N+](=O)[O-]    inactive
CC(c1ccc(O)cc1)(c1ccc(O)cc1)c1ccc(O)cc1    72900 nM (active)
CCC(C)(CC)c1cc(NC(=O)c2c(OC)cccc2OC)on1    1150 nM (active)
Nn1cnnc1    inactive
CCCCCCCCOC(=O)c1ccccc1C(=O)OCCCCCCCC    inactive
ClC1=C(Cl)[C@]2(Cl)[C@@H]3[C@@H]4C[C@@H]([C@H]5O[C@@H]45)[C@@H]3[C@@]1(Cl)C2(Cl)Cl    32.5 nM (active)

Now consider a different compound.
Just so you know, measured AC50 for CCC(=O)O[C@H]1CC[C@H]2[C@@H]3CCC4=CC(=O)CC[C@]4(C)[C@H]3CC[C@]12C came out at inactive

---

# Read-out: CD40, CD40 (gene 958)
# test-description: BSK_SAg_CD40: BioMAP Diversity Plus: SAg Assay for CD40 Biomarker Activity (AID 2283088)
# condition-description: primary human HUVEC with PBMC; actives raise or lower the signal
Activity calls are given as the source filed them. Rule for the calls: active = hit-call score of the fitted dose curve at least 0.9, where 1 is the maximum; inactive = score below 0.9.
measure: outcome

Look over these answered cases.
N#Cc1ccc(N(CC(N)=O)CC(F)(F)F)cc1C(F)(F)F    inactive
CCC(C)(CC)c1cc(NC(=O)c2c(OC)cccc2OC)on1    inactive
Cc1ccccc1CO[C@@H]1C[C@@]2(C(C)C)CC[C@]1(C)O2    inactive
Oc1ccc(Cl)cc1Cl    inactive
O=C(NC(=O)c1cc(F)c(F)cc1Cl)Nc1cc(F)ccc1N1CCC(C(=O)O)CC1    inactive
C1CC2OC2CC1C1CO1 (configuration not stated)    inactive

Just so you know, measured outcome for Sc1ccccc1 came out at inactive

---

# test-description: CCTE_Deisenroth_AIME_384WELL_CTox_Inactive: Cytotoxicity Assessment (CTOX) in CCTE's 384-well Estrogen Receptor Transactivation Assay without AIME metabolic competence (metabolism negative), Deisenroth Lab (AID 2284039);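 also: cell viability via live-cell protease substrate cleaved to fluorescent probe; cells exposed 24 h to medium preincubated 2 h with alginate-water beads without S9; loss of fluorescence signal means loss of viability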
Records with an inconclusive call do not appear. Calls of active or inactive are those of the source. How the source made its calls: active means hit-call score of the fitted dose curve at least 0.9, where 1 is the maximum; inconclusive means response in the unintended direction; inactive means score below 0.9.
Pick one: label 1 for active, label 0 for inactive

# example entries with known answers
CCCN(CCC)N=O    label 0
CCC(=O)O[C@H]1CC[C@H]2[C@@H]3CCC4=CC(=O)CC[C@]4(C)[C@H]3CC[C@]12C    label 0
OCC(O)CO    label 0
Cc1ccccc1O    label 0
O=C(N[C@H]1CN2CCC1CC2)c1cc2ccoc2cn1    label 0
CCC(C)(c1ccc(O)cc1)c1ccc(O)cc1    label 1
C[C@]12CCC(=O)C=C1CC[C@@H]1[C@@H]2CC[C@]2(C)C(=O)CC[C@@H]12    label 0
c1cc2ccc3cccc4ccc(c1)c2c34    label 1
O=S(=O)(O)C(F)(F)C(F)(F)C(F)(F)C(F)(F)C(F)(F)C(F)(F)F    label 0
C=CC(=O)NCNC(=O)C=C    label 1

Recorded test outcome, item C1CC2OC2CC1C1CO1 (stereo not drawn)
label 0

Recorded test outcome, item Clc1ccc(C(Cl)(Cl)Cl)cc1
label 0

Recorded test outcome, item Nc1ccc(-c2ccc(N)cc2)cc1
label 0

---

# test-description: ATG_PPRE_CIS: Attagene CIS-FACTORIAL HepG2 Assay for human Peroxisome Proliferator-activated Response Element (PPRE) (AID 2282958)
# condition-description: HepG2 PPRE cis-element reporter, Attagene transcription factor profiling; actives raise or lower the signal
# Protocol: ATG_CIS is a cell-based, multiplexed-readout assay that uses HepG2, a human liver cell line, with measurements taken at 24 hours after chemical dosing in a 24-well plate.ATG_PPRE_CIS is one of 52 assay component(s) measured or calculated from the ATG_CIS assay. […] This assay endpoint, ATG_PPRE_CIS, was analyzed with bidirectional fitting relative to DMSO as the negative control and baseline of activity. […]
Activity calls are given as the source filed them. The calls were made as follows: active = hit-call score of the fitted dose curve at least 0.9, where 1 is the maximum; inactive = score below 0.9.
Pick one: 1 = active, 0 = inactive

# example entries with known answers
CCOCCOC(C)=O    0
ClC1=C(Cl)[C@]2(Cl)[C@@H]3[C@@H](Cl)[C@H]4O[C@H]4[C@@H]3C1(Cl)C2(Cl)Cl    0
CCCCCCCCOC(=O)c1ccccc1C(=O)OCCCCCCCC    0
CC1=C2C[C@H]3[C@@H](CC=C4C[C@@H](O)CC[C@@]43C)[C@@H]2CC[C@]12O[C@@H]1C[C@H](C)CN[C@H]1[C@H]2C    0

Then this compound:
Recorded test outcome, item Cc1cc2c3c(c1)C(c1ccccc1)=N[C@@H](NC(=O)c1ccncc1)C(=O)N3CC2
0

---

# target: Glucocorticoid receptor (Homo sapiens) (UniProt P04150)
# Sequence (P04150 whole entry, looked up): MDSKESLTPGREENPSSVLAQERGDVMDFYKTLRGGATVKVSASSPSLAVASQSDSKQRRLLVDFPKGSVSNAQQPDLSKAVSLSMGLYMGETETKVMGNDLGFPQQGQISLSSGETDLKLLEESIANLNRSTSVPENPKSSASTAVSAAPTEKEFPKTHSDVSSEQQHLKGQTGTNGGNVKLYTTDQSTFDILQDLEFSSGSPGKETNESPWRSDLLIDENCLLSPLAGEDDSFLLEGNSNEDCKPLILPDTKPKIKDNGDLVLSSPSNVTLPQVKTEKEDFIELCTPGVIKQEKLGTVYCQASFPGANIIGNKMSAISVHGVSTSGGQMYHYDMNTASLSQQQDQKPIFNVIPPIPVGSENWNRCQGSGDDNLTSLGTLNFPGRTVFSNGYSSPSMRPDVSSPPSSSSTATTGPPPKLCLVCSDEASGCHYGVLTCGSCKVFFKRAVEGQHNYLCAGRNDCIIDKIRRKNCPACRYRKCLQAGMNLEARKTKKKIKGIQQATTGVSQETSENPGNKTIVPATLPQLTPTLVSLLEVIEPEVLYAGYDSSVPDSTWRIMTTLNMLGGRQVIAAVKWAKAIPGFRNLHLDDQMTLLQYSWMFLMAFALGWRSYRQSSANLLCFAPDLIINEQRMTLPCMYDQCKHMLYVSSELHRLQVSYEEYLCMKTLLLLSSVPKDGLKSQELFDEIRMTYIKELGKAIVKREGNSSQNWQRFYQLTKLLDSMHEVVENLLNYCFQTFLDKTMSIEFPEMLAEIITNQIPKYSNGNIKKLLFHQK
# test-description: NVS_NR_hGR: NovaScreen (NVS) Nuclear Receptor Binding Assay for human Glucocorticoid Receptor (GR) (AID 2283363)
Records with an inconclusive call do not appear. Calls of active or inactive are those of the source. How the source made its calls: active means hit-call score of the fitted dose curve at least 0.9, where 1 is the maximum; inconclusive means response in the unintended direction; inactive means score below 0.9.
Pick one: TRUE (active), FALSE (inactive)

# example entries with known answers
Oc1ccc(C(c2ccc(O)cc2)(C(F)(F)F)C(F)(F)F)cc1    TRUE
OCC(O)CO    TRUE
O=C(O)C(F)(F)C(F)(F)C(F)(F)C(F)(F)C(F)(F)C(F)(F)C(F)(F)C(F)(F)C(F)(F)F    FALSE

Then this compound:
Recorded test outcome, item CCCCCCCCCC[N+](C)(C)CCCCCCCCCC
TRUE

---

# Read-out: CYP4A11 (gene 1579)
# test-description: LTEA_HepaRG_CYP4A11: Life Technologies and Expression Analysis (LTEA) Assay for CYP4A11 using HepaRG (AID 2283486)
# condition-description: mRNA level, 48 h; actives raise or lower the signal
# Method: LTEA_HepaRG is a cell based, multiplexed-readout assay that uses HepaRG, a human liver cell line, with measurements taken at 48 hours after chemical dosing on a 96-well plate.LTEA_HepaRG_CYP4A11 is one of 102 assay component(s) measured in the LTEA HepaRG cell culture assay. It is a marker of NR mediated metabolism.Data from the assay component LTEA_HepaRG_CYP4A11 was analyzed into 1 endpoint. […]
Calls of active or inactive are those of the source. The calls were made as follows: active = hit-call score of the fitted dose curve at least 0.9, where 1 is the maximum; inactive = score below 0.9.
Pick one: active, inactive

# example entries with known answers
CC(c1ccc(O)cc1)(c1ccc(O)cc1)c1ccc(O)cc1    inactive
Cc1cccc(C)c1N    inactive
CCOC(=O)C(O)(c1ccc(Cl)cc1)c1ccc(Cl)cc1    active
Cc1ccccc1[N+](=O)[O-]    inactive

Recorded test outcome, item ClC(Cl)=C(c1ccc(Cl)cc1)c1ccc(Cl)cc1
inactive

Recorded test outcome, item O=S(=O)(O)C(F)(F)C(F)(F)C(F)(F)C(F)(F)C(F)(F)C(F)(F)F
active

---

# target: rat Peripheral-type Benzodiazepine Receptor (PBR), Tspo (gene 24230) (UniProt P16257)
# Sequence (P16257 whole entry, looked up): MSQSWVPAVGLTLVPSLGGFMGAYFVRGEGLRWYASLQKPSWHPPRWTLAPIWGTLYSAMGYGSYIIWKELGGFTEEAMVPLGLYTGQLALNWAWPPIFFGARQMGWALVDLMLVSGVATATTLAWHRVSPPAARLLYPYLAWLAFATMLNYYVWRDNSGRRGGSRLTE
# test-description: NVS_MP_rPBR: NovaScreen (NVS) Membrane Protein Assay for rat Peripheral-type Benzodiazepine Receptor (PBR) (AID 2283335)
# Experimental: NVS_MP_rPBR is a biochemical, single-readout assay that uses extracted gene-proteins from Rat kidney membranes in a tissue-based cell-free assay. Measurements were taken 1 hour after chemical dosing in a 48-well plate.NVS_MP_rPBR is one of one assay component(s) measured or calculated from the NVS_MP_rPBR assay. […] This assay endpoint, NVS_MP_rPBR, was analyzed in the positive analysis fitting direction relative to DMSO as the negative control and baseline of activity. […]
Records with an inconclusive call do not appear. Calls of active or inactive are those of the source. The calls were made as follows: active = hit-call score of the fitted dose curve at least 0.9, where 1 is the maximum; inconclusive = response in the unintended direction; inactive = score below 0.9.
measure: AC50

CC(C)(O)C(=O)Nc1ccc([N+](=O)[O-])c(C(F)(F)F)c1    inactive
Cc1cc2c3c(c1)C(c1ccccc1)=N[C@@H](NC(=O)c1ccncc1)C(=O)N3CC2    9.63 µM (active)
CO/C=C(/C(=O)OC)c1ccccc1COc1cccc(C(F)(F)F)n1    0.189 µM (active)
Cc1ccc(O)c(C)c1    inactive
Cc1cc(-c2ccc(N)c(C)c2)ccc1N    13.7 µM (active)

Now consider a different compound.
Just so you know, measured AC50 for CC(C)(c1ccccc1)c1ccc(O)cc1 came out at inactive
